src = patent US12630600B2

# system: human GLP-1 receptor (human, UniProt P43220)
# assay-overview: cell-based or functional assay
Starred links: 1 amine or outer side, 2 acyl side, 3 side chain; linkers in the order of their positions; H or OH if unused. Non-standard residues stand in square brackets, D forms with d. Groups on a side chain read outwards from the residue. Primed or numbered codes have the meaning given here. No end group written: not given here. *: point of attachment. C18 diacid = O=C(O)CCCCCCCCCCCCCCCCC(=O)*; Dip = N[C@H](C(=O)O)C(c1ccccc1)c1ccccc1; Heptadecanoyl = CCCCCCCCCCCCCCCCC(=O)*; γGlu = O=C(O)[C@H](CCC(=O)[*:2])N[*:1]; Palmitoyl = CCCCCCCCCCCCCCCC(=O)*; αMeF = C[C@](N)(Cc1ccccc1)C(=O)O; Myristoyl = CCCCCCCCCCCCCC(=O)*; (PEG)2 = polyethylene glycol 2; PEG2′ = polyethylene glycol 2; PEG2 = NCCOCCOCCC(=O)O; Aib = CC(C)(N)C(=O)O
value-type: cAMP production, hGLP-1R EC50 (pM)

Worked cases, answers included:
1) HSQGS[αMeF]TSDVSK[Dip]LDSK([PEG2-PEG2-γGlu-γGlu-C18 diacid])AAQD[αMeF]VE[Aib]IINT-NH2 [Peptide 65] = 1230 pM
2) H[Aib]QGS[αMeF]TSDVSKILDSK([(PEG)2-(PEG)2-γGlu-Palmitoyl])AAQD[αMeF]VQ[Aib]IINT-NH2 [Peptide 128] = 0.788 pM
3) HSQGS[αMeF]TSDVSK[αMeF]LDSK([(PEG)2-(PEG)2-γGlu-γGlu-Heptadecanoyl])AAQD[αMeF]VQ[Aib]IAN-NH2 [Peptide 88] = 1.04 pM
4) HSQGS[αMeF]TSDVSK[Aib]LDSK([(PEG)2-(PEG)2-γGlu-γGlu-Palmitoyl])AAQD[αMeF]VQ[Aib]IIE-NH2 [Peptide 99] = 2.21 pM
5) H[Aib]QGS[αMeF]TSDVSKILDSK([(PEG)2-(PEG)2-γGlu-γGlu-Palmitoyl])AAQD[αMeF]VQ[Aib]IINT-NH2 [Peptide 125] = 0.575 pM
6) HSQGS[αMeF]TSDVSK[Dip]LDSK([PEG2′-PEG2′-γGlu-γGlu-Palmitoyl])AAQD[αMeF]VE[Aib]IINT-NH2 [Peptide 64] = 2.57 pM
7) HSQGS[αMeF]TSDVSKILDSK([(PEG)2-(PEG)2-γGlu-γGlu-Myristoyl])AAQD[αMeF]VQ[Aib]IINT-NH2 [Peptide 119] = 1.39 pM
8) HSQGS[αMeF]TSDVSK[αMeF]LDSK([(PEG)2-(PEG)2-γGlu-γGlu-Palmitoyl])AAQD[αMeF]VQ[Aib]IAN-NH2 [Peptide 87] = 1.29 pM

Moving on to another binder below.
# input binder: HSQGS[αMeF]TSDVSKILDSKAAQD[αMeF]VQ[Aib]IAN-NH2 (not fully specified (residue 17)) [Peptide 111] ; wanted: its cAMP production, hGLP-1R EC50 (pM) 1.92 pM
